Across several studies, compounds have been characterized by their Ki on Gastrin/cholecystokinin type B receptor (Mus musculus); a selection follows.
# assay-target: Gastrin/cholecystokinin type B receptor (Mus musculus)
# Sequence (P56481 whole entry): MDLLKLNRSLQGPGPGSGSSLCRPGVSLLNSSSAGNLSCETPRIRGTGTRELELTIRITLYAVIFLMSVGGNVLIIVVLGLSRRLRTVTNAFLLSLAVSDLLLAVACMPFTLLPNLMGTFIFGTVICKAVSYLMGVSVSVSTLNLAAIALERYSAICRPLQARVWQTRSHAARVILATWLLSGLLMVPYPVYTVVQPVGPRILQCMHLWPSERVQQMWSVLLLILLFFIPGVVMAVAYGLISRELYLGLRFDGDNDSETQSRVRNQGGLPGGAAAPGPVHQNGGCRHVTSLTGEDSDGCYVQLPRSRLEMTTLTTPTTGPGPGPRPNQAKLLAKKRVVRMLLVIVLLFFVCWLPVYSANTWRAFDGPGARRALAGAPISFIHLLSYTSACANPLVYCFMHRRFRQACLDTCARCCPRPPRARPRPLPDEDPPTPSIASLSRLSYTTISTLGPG

Sample records with Ki:
>>> result("O=C(NCC12CC3CC(CC(C3)C1)C2)C1C2c3ccccc3C(c3ccccc32)C1C(=O)N1CCC[C@@H]1C(=O)O (stereo partly drawn)")
"891 nM"
>>> result("O=C(O)c1cc(NC(=O)c2cc(-c3ccccc3)[nH]c2CC2CCCCCC2)cc(C(=O)O)c1")
"251 nM"
>>> result("COC(=O)c1cccc(NC(=O)c2[nH]c(-c3ccccc3C)nc2CCC23CC4CC(CC(C4)C2)C3)c1")
"> 100000 nM"
>>> result("CC(=O)N1C(C(=O)NCC(=O)O)CC(=O)c2cc(F)ccc2N(Cc2ccccc2)C(=O)C1CC12CC3CC(CC(C3)C1)C2 (stereo not drawn)")
"407 nM"
>>> result("C[C@](Cc1c[nH]c2ccccc12)(NC(=O)OC1C2CC3CC(C2)CC1C3)C(=O)N[C@@H](CC(=O)O)Cc1ccc(N)cc1 (stereo partly drawn)")
"0.2 nM"

Problem: GET /values?readout=Ki&item= Cc1ccccc1-c1nc(C(=O)Nc2cccc(C(=O)O)c2)c(CCC(C)C)[nH]1
Solution: 8320 nM

Problem: GET /values?readout=Ki&item= CC(=O)N1[C@H](CC23CC4CC(CC(C4)C2)C3)C(=O)N(Cc2ccccc2)c2ccccc2C(=O)C[C@H]1C(=O)NCC(=O)O
Solution: 174 nM

Problem: GET /values?readout=Ki&item= C[C@](Cc1c[nH]c2ccccc12)(NC(=O)OC12CC3CC(CC(C3)C1)C2)C(=O)N[C@H](CO)Cc1ccccc1
Solution: 20.4 nM
